Tested on: HS 578T breast
Protocol Summary: NCI tumour cell line growth inhibition, 48 h
Outcome Measure: TGI

Molecule | Measured On | Outcome Measure | Result
Clc1ccc2c(NCCCCCCNc3ccnc4cc(Cl)ccc34)ccnc2c1 | HS 578T breast | TGI | > 48.8 µM
Oc1ccc(Cl)cc1C=Nc1cnc2ccccc2c1 | HS 578T breast | TGI | > 100 µM
COc1cc(N2C(=O)[C@H](Cl)C2c2ccc(SC)cc2)cc(OC)c1OC (stereo partly drawn) | HS 578T breast | TGI | > 100 µM

---

Catalogue of TGI readings, one per entry.
Test system: KM12 colon
Protocol Summary: NCI tumour cell line growth inhibition, 48 h

Compound | TGI
COc1nc(Cl)nc(N[C@H](C)c2c3ccccc3cc3ccccc23)n1 | 26.9 µM
O=S(=O)(Nc1nc2ccccc2nc1N1CCCCCC1)c1ccccc1 | 52 µM
N#C/C(=C\c1ccc2[nH]ccc2c1)C(=O)NCCCCNC(=O)/C(C#N)=C/c1ccc2[nH]ccc2c1 | > 31.6 µM
Oc1ccc(Cl)cc1C=Nc1cnc2ccccc2c1 | > 100 µM
CC1OC(OC2C(O[C@H]3CC[C@@]4(C)C(=CC[C@H]5[C@@H]6C[C@@H]7O[C@]8(CC[C@@H](C)CO8)[C@@H](C)[C@@H]7[C@@]6(C)CC[C@@H]54)C3)OC(CO)C(O)C2OC2OC(CO)C(O)C(O)C2O)C(O)C(O)C1O (some centres undefined) | 4.49 µM
CC(C)(CO[C@H]1C[C@H]2CC[C@@]1(C)C2(C)C)[N+](=O)[O-] | 32.4 µM
COC(=O)C1C=CCC2CCCCC21N1CCCC1 (centres undefined) | > 100 µM
O=C1NC(O)c2cc3ccccc3cc2O1 (centres undefined) | > 100 µM
CC(=O)n1[nH]c(=O)n(-c2ccc(Cl)cc2)c1=O | > 100 µM
O=C1NC(O)n2c(=O)[nH]c(=O)n21 (centres undefined) | > 100 µM
Cc1cc(=O)[nH]c(NNC(C#N)c2cccc([N+](=O)[O-])c2)n1 (centres undefined) | > 100 µM
COc1cc2c(cc1C)NC(=O)/C2=C/c1ccnc2ccccc12 | > 50 µM
NC(=O)[C@H](Cc1ccc(O)cc1)Nc1c(O)c2c(c(O)c1Cl)C(=O)C=CC2=O | > 6.81 µM
Nc1c(C(=O)c2ccc(Cl)c(Cl)c2)[nH]c(NCc2ccccc2)c1C(=S)Nc1ccccc1 | 10.5 µM
NC(=O)CCC(N=c1c2ccccc2n(O)c2ccccc12)C(=O)O (centres undefined) | > 100 µM
Cc1cccc(C2NC(=O)c3ccccc3N2)c1 (centres undefined) | > 100 µM
C=C1c2nc3ccccc3n2C=C(c2ccc(C)cc2)N1c1ccc(OC)cc1 | 63.3 µM
N#Cc1c(-c2ccc([N+](=O)[O-])cc2)c(C#N)c(=O)n(NS(=O)(=O)c2ccccc2)c1S | > 100 µM
CCOc1c(Br)cc(Br)cc1C=C(C#N)C#N | > 10 µM
C[C@@]1(F)[C@H](O)[C@@H](CO)O[C@H]1n1ccc(=O)[nH]c1=O | > 100 µM
O=C(Nc1ccc(Cl)cc1C(F)(F)F)C(=O)Nn1c(=S)[nH]c2ccccc2c1=O | > 100 µM
Cc1cccc(C)c1NC(=O)C(=O)Cc1nc2ccccc2s1 | > 100 µM
O=C(CC1=Nc2nnc(CCCCCCCc3nnc4n3C(=O)C(CC(=O)c3ccc5ccccc5c3)=N4)n2C1=O)c1ccc2ccccc2c1 | > 100 µM
CC(C)CCCC(C)[C@H]1CCC(C2C[C@@H](O)[C@@H]3CC(O)[C@@H](O)C[C@]3(CO)C2=O)[C@]1(C)CCO (some centres undefined) | 19.6 µM
Clc1ccccc1C(Nc1cnccn1)Nc1cnccn1 | > 100 µM
COc1ccc(-n2c(=S)sc3c(Cl)nc(C)nc32)c(OC)c1 | 11.5 µM
Cc1cn(CCCCCCOC(=O)NC(CCCNC(N)=O)C(=O)O)c(=O)[nH]c1=O (centres undefined) | > 100 µM
C/C(=N/NC(=S)Nc1ccccc1)c1nc2ccc(Cl)cc2[nH]1 | 0.826 µM
Cn1c(COC(=O)NCCc2ccccn2)nc2c(N3CCOCC3)nc(Cl)nc21 | 4.75 µM
Cc1nc(NC(C)(CO)CO)nc(N/N=C/c2ccc(Cl)cc2)c1C(=O)Nc1ccc(Cl)cc1 | > 100 µM
COc1ccc(-c2ccc(CC(=O)O)cc2)cc1OC | > 100 µM
COc1ccc(N2C(=O)C3c4[nH]c5c(C)cccc5c4C4CCC(C(C)C)CC4C3C2=O)cc1 (centres undefined) | 19.9 µM
CC(=O)[CH-]C(C)=O.CC(=O)[CH-]C(C)=O.[O-]c1ccccc1.[O-]c1ccccc1.[Ti+4] | > 100 µM
COC(=O)C1CC(c2ccc(OC)c(OC)c2)OC1=O (mixture of isomers) | > 100 µM
